Cited source for all entries: PubChem BioAssay (NCATS)

- assay: qHTS of pediatric cancer cell lines to identify multiple opportunities for drug repurposing: Primary screen for NB1643 cells (AID 1347099); further: nearly all actives have a fitted effect of over 50% in size
- setup.conditions: NB1643 neuroblastoma viability, CellTiter-Glo luminescence, 48 h; series mostly up to 46 µM
Records with an inconclusive call do not appear. The source made the active and inactive calls. The call rests on the fitted dose curve; in most records, active means well fitted cell-killing curve with a large enough effect; inconclusive means small, poorly fitted or top-dose-only effect; inactive means no such curve, though single readings can be large or run the other way.
Labels: yes for active, no for inactive

• Cc1cccc(OCC(O)CNC(C)(C)C)c1C (configuration not stated) = no
• CNC(=O)c1c(I)c(NC(C)=O)c(I)c(C(=O)O)c1I = no
• Clc1ccc2c(c1)Nc1ccccc1S2 = no
• COC(=O)C1=C(C)NC(C)=C(C(=O)OCCc2ccc(N3CCN(C(c4ccccc4)c4ccccc4)CC3)cc2)C1c1cccc([N+](=O)[O-])c1 (configuration not stated) = no
• O=C1CCCc2c(O)cccc21 = no
• CC(C)C(C)(C)C(C)(C)C(C)(C)S = no
• CCOc1ncc(F)c(=O)[nH]1 = no
• CCC1(c2cnc[nH]2)Cc2ccccc2C1 = no
• N#CSCC(=O)O = no
• N[C@@H](Cc1cc(I)c(O)c(I)c1)C(=O)O = no
• Cc1onc(-c2ccccc2)c1C(=O)Cl = no
• CC1CCCCN1CCCOC(=O)c1ccc(OC2CCCCC2)cc1 (configuration not stated) = no
• O=C1NC(c2ccccc2)(c2ccccc2)C(=O)N1COP(=O)(O)O = no
• CCCCCC(=O)O[C@]1(C(C)=O)CC[C@H]2[C@@H]3CCC4=CC(=O)CC[C@]4(C)[C@H]3CC[C@@]21C = yes
• CCCCOC(=O)CCCCCCCCC(=O)OCCCC = no
• CC(=O)/C=C/C=C1/C2CCC(C2)C1(C)C (configuration not stated) = no
• COCCc1ccccn1 = no
• COC(=O)/C=C(/C)N = no
• COc1ccc2c(c1)c(CC(=O)OC/C=C(\C)CC/C=C(\C)CCC=C(C)C)c(C)n2C(=O)c1ccc(Cl)cc1 = no
• COc1ccc2nc(SCc3ncc(C)c(OC)c3C)[nH]c2c1 = no
• CCCCCCCCCCCC[N+](C)(C)Cc1ccccc1 = yes
• CO[C@@H]1[C@@H](OC)[C@H](C)[C@@](O)(CC(=O)O)O[C@H]1[C@H](C)[C@H]1O[C@@]2(CC[C@@](C)([C@H]3CC[C@@](C)([C@@H]4O[C@@H]([C@H]5O[C@](C)(O)[C@H](C)C[C@@H]5C)C[C@@H]4OC4C[C@H](OC)[C@@H](OC)[C@H](C)O4)O3)O2)C[C@H](O)[C@H]1C (some centres not stated) = yes
